Target: Cytochrome P450 1A2 (Homo sapiens, UniProt P05177)
Sequence (P05177 whole entry): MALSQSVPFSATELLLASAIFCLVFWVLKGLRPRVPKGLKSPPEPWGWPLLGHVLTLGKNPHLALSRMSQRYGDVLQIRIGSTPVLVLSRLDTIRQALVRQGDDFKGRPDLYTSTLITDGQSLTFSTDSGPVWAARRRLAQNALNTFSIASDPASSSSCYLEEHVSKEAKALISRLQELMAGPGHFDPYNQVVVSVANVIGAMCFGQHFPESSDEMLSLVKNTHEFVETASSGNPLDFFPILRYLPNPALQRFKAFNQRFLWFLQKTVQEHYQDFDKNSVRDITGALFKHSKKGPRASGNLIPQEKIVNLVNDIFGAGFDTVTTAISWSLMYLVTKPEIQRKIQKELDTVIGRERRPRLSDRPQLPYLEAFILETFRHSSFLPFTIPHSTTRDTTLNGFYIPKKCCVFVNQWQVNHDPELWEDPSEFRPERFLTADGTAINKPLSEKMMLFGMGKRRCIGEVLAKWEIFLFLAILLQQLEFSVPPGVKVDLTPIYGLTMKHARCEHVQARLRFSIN
Assay: Inhibition of recombinant CYP1A2 (unknown origin) using 7-ethoxyresorufin as substrate preincubated for 5 mins followed by NADPH addition incubated for 50 mins by EROD assay
pIC50: −log10 of the molar value.
parameter: pIC50

Check out these entries, answers already filled in.
[
  {
    "compound smiles": "COc1ccc(OC)c2c1c(OC)cc1c(=O)cc(-c3cc(F)cc(OCCOCCN)c3)oc12",
    "measurement target": "Cytochrome P450 1A2 (Homo sapiens, UniProt P05177)",
    "pIC50": 6.28
  },
  {
    "compound smiles": "COc1ccc(OC)c2c1c(OC)cc1c(=O)cc(-c3cc(F)cc(NC(=O)COCCN)c3)oc12",
    "measurement target": "Cytochrome P450 1A2 (Homo sapiens, UniProt P05177)",
    "pIC50": 5.80
  },
  {
    "compound smiles": "COc1ccc(OC)c2c1c(OC)cc1c(=O)cc(-c3cc(F)cc(OCCOCCOCCN)c3)oc12",
    "measurement target": "Cytochrome P450 1A2 (Homo sapiens, UniProt P05177)",
    "pIC50": 5.73
  }
]

P. COc1ccc(OC)c2c1c(OC)cc1c(=O)cc(-c3cc(F)cc(NC(=O)CCCCCCN)c3)oc12
Q. COc1ccc(OC)c2c1c(OC)cc1c(=O)cc(-c3cc(F)cc(NC(=O)CCCCN)c3)oc12
Thinking about recorded pIC50 values, which is higher, P or Q ? Your answer should be the label of the entry you select.
Q
(Q: 6.29, P: 5.83)

---

Target: Cytochrome P450 1B1 (Homo sapiens, UniProt Q16678)
Sequence (Q16678 whole entry): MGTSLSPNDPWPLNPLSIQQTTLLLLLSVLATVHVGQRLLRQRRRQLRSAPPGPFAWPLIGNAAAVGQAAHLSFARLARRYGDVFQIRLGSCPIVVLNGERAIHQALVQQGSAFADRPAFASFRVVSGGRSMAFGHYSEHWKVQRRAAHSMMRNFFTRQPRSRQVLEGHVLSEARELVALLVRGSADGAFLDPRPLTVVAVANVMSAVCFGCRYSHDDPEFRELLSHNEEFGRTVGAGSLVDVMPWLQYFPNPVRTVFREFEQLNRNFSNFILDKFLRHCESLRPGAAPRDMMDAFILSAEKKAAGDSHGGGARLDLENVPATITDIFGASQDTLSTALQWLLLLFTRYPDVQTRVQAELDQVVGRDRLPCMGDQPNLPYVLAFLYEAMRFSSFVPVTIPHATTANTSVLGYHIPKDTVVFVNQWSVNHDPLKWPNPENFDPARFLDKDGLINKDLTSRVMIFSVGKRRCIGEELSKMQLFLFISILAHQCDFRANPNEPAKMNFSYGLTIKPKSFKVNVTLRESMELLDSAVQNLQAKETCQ
Assay: Inhibition of recombinant CYP1B1 (unknown origin) using 7-ethoxyresorufin as substrate preincubated for 5 mins followed by NADPH addition incubated for 35 mins by EROD assay
pIC50: −log10 of the molar value.
parameter: pIC50

Here are 2 molecules together with their reported answers.
[
  {
    "compound smiles": "COc1ccc(OC)c2c1c(OC)cc1c(=O)cc(-c3ccc(O)c(F)c3)oc12",
    "pIC50": 6.95
  },
  {
    "compound smiles": "COc1ccc(OC)c2c1c(OC)cc1c(=O)cc(-c3cc(N)cc(F)c3)oc12",
    "pIC50": 8.69
  }
]

A. COc1ccc(OC)c2c1c(OC)cc1c(=O)cc(-c3cc(O)cc(F)c3)oc12
B. COc1ccc(OC)c2c1c(OC)cc1c(=O)cc(-c3ccc(N)c(F)c3)oc12
Returns the identifier with the smallest measured pIC50 among A and B . Return value: the label identifying the chosen record.
A
